# measurement_description: Plasma concentration in Sprague-Dawley rat at 10 mg/kg, po after 1 hr
# Type: ADME, organism-based
# Set-up: dose 10 mg/kg, route oral
measurement_kind: concentration at 1 h (ng/mL)

Solved entries (count: 2):
c1ccc(Nc2nc3c(s2)CCCc2[nH]ncc2-3)nc1 259
c1ccc(Nc2nc(-c3cn[nH]c3)cs2)nc1 766

a. c1cnc(Nc2nc3c(s2)CCCc2[nH]ncc2-3)nc1
b. c1ccc(Nc2nc3c(s2)CCc2[nH]ncc2-3)nc1
Which gives the smaller concentration at 1 h number: a or b ? Bench note: the answer is the label of the chosen record. a

---

# target_of_assay: Metabotropic glutamate receptor 4 (Homo sapiens, UniProt Q14833)
# Sequence (Q14833 whole entry): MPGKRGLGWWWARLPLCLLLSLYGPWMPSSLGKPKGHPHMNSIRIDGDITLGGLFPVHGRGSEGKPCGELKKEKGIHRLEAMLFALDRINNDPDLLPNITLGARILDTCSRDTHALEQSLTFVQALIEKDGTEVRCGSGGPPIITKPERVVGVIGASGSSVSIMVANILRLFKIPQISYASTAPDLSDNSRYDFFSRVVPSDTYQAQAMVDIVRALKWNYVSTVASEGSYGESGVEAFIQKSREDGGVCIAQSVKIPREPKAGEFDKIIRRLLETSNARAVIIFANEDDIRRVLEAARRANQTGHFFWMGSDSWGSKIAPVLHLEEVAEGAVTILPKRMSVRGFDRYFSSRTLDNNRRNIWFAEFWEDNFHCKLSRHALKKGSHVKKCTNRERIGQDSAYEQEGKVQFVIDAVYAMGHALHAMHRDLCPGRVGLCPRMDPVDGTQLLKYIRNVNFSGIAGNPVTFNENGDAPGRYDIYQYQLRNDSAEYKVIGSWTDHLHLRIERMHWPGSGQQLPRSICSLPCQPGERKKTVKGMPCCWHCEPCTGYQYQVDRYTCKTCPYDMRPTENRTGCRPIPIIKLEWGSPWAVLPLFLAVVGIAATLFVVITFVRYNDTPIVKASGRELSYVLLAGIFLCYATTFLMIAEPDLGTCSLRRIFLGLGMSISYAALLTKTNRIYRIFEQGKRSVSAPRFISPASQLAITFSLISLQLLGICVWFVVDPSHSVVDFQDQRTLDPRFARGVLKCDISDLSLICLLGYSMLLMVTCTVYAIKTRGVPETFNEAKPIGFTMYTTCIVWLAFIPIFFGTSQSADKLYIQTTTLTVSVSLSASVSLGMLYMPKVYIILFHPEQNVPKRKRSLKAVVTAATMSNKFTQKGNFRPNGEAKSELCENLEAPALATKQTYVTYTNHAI
# measurement_description: Positive allosteric modulation of human mGlu4 receptor expressed in BHK cells assessed as potentiation of glutamate-induced response after 1 hr by FLIPR assay relative to glutamate
# Format: cell-based
measurement_kind: Emax (%)

Solved entries (count: 5):
molecule	display_unit	measured_number
Cc1ccnc(Nc2nc3c(s2)CCc2n[nH]cc2-3)c1	%	11
c1cncc(Nc2nc3c(s2)CCc2n[nH]cc2-3)c1	%	11
Cc1ccc(Nc2nc3c(s2)CCCc2n[nH]cc2-3)nn1	%	6.3
Cc1cccc(Nc2nc3c(s2)CCCc2n[nH]cc2-3)n1	%	200
CCOc1cccc(Nc2nc3c(s2)CCCc2n[nH]cc2-3)n1	%	78

1. Cc1cc(C)nc(Nc2nc3c(s2)CCc2n[nH]cc2-3)c1
2. COc1ccnc(Nc2nc3c(s2)CCCc2n[nH]cc2-3)n1
3. Cc1cccnc1Nc1nc2c(s1)CCCc1n[nH]cc1-2
4. c1cncc(Nc2nc3c(s2)CCCc2n[nH]cc2-3)c1
5. c1cc(Nc2nc3c(s2)CCCc2n[nH]cc2-3)n[nH]1
Sort ascending by Emax. Please list the labels in the order you were asked to rank them. 1, 4, 3, 5, 2

---

# measurement_description: Intrinsic clearance in rat microsomes
# Format: ADME, Microsome
measurement_kind: CL (mL/min)

Solved entries (count: 4):
c1ccc(Nc2nc(-c3cn[nH]c3)cs2)nc1 61
c1cnc(Nc2nc3c(s2)CCCc2[nH]ncc2-3)nc1 92
c1ccc(Nc2nc3c(s2)CCc2[nH]ncc2-3)nc1 37
c1ccc(Nc2nc3c(s2)CCCc2[nH]ncc2-3)nc1 36

I. c1cnc(Nc2nc3c(s2)CCc2[nH]ncc2-3)nc1
II. Cc1cccc(Nc2nc3c(s2)CCc2[nH]ncc2-3)n1
API: POST /compare with I and II ; response names the item with higher CL. Bench note: the answer is the label of the chosen record. II
(II: 400 mL/min, I: 42 mL/min)

---

# measurement_description: Fraction unbound in human plasma
# Type: ADME, cell-free
measurement_kind: fraction unbound
Response field accepts a number only; no unit should be typed.

Form field: reported fraction unbound of `c1ccc(Nc2nc(-c3cn[nH]c3)cs2)nc1` 0.035

---

# target_of_assay: UniProtKB P41594
# Sequence (P41594 whole entry): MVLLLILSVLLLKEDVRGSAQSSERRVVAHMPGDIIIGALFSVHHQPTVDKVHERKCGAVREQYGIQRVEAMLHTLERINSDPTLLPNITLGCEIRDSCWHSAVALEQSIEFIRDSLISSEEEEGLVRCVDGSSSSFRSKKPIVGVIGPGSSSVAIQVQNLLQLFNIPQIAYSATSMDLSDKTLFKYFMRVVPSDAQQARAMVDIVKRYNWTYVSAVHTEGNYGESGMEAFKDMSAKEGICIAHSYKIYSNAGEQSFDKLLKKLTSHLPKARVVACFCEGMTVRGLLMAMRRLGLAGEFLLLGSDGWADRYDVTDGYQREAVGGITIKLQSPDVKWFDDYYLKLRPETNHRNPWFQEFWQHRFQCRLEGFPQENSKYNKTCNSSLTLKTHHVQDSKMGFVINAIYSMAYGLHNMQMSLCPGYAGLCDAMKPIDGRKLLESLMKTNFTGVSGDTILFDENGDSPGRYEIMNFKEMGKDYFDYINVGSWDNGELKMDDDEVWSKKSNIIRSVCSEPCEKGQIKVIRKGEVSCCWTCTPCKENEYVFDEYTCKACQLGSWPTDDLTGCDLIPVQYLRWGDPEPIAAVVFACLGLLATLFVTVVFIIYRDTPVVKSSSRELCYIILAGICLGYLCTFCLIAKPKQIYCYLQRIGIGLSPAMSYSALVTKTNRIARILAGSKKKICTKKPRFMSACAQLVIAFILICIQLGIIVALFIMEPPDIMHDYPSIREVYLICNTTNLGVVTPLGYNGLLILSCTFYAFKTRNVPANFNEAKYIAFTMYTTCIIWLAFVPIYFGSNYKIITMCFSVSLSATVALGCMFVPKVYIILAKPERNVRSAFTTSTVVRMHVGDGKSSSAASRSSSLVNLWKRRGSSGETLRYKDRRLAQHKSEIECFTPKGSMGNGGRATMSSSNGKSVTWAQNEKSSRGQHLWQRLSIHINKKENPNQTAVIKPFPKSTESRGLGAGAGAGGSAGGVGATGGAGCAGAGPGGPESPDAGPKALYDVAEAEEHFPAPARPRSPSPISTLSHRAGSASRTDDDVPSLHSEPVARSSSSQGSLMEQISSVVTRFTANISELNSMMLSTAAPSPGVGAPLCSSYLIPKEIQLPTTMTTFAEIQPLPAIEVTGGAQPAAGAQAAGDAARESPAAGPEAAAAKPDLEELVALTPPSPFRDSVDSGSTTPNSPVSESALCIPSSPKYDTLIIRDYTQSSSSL
# measurement_description: Positive allosteric modulation of mGlu5 receptor assessed as potentiation of glutamate-induced calcium mobilization
# Type: functional
measurement_kind: EC50

Solved entries (count: 2):
c1ccc(Nc2nc3c(s2)CCc2[nH]ncc2-3)nc1 > 10 µM
c1ccc(Nc2nc3c(s2)CCCc2[nH]ncc2-3)nc1 > 10 µM

Form field: reported EC50 of `c1cnc(Nc2nc3c(s2)CCCc2[nH]ncc2-3)nc1` > 10 µM
